The measurements presented in this section are drawn from patent US20090156646A1.

What melting point was measured for each of the following?
Counter-ions that a name gives are not always drawn.

Challenge: Quick check: melting point of N#Cc1c(-c2cccc(N)c2)cc(-c2ccccc2O)nc1NC(=O)c1ccccc1 ?
Response given: 259 to 261 °C

Challenge: Follow-up entry: Cl.N#Cc1c(-c2cccc(NC(=O)[C@H]3CCCN3)c2)cc(-c2ccc(Cl)cc2O)nc1NC(=O)c1nccs1
Response given: 222 to 228 °C

Challenge: Follow-up entry: CC(=O)NCCC(=O)Nc1cccc(-c2cc(-c3ccc(Cl)cc3O)nc(NC(=O)c3cccs3)c2C#N)c1
Response given: 209 to 210 °C

Challenge: Follow-up entry: CCC(CC(=O)Nc1cccc(-c2cc(-c3ccc(F)cc3O)nc(NC(=O)c3ccco3)c2C#N)c1)N(CC)CC.Cl (stereo not shown)
Response given: 171 to 175 °C

Challenge: Follow-up entry: N#Cc1c(-c2cccc(N)c2)cc(-c2ccccc2O)nc1NC(=O)c1ccc(Cl)s1
Response given: 259 to 260 °C

Challenge: Follow-up entry: Cl.N#Cc1c(-c2cccc(NC(=O)C(N)c3ccccc3)c2)cc(-c2ccc(F)cc2O)nc1NC(=O)c1ccco1 (stereo not shown)
Response given: 224 to 225 °C

Challenge: Follow-up entry: C[C@@H](N)C(=O)Nc1cccc(-c2cc(-c3ccc(Cl)cc3O)nc(NC(=O)c3ccco3)c2C#N)c1.Cl
Response given: 210 to 216 °C

Challenge: Follow-up entry: CCN1CCCCC1CC(=O)Nc1cccc(-c2cc(-c3ccc(F)cc3O)nc(NC(=O)c3ccco3)c2C#N)c1.Cl (stereo not shown)
Response given: 201 to 203 °C

Challenge: Follow-up entry: Cl.N#Cc1c(-c2cccc(C(=O)NC3CCCNC3)c2)cc(-c2ccccc2O)nc1NC(=O)c1cc2ccccc2s1 (stereo not shown)
Response given: 225 to 229 °C

Challenge: Follow-up entry: CC(C)(C)OC(=O)c1c(-c2cccc(N)c2)cc(-c2ccccc2O)nc1NC(=O)c1ccccc1
Response given: 162 to 164 °C

Challenge: Follow-up entry: Cl.N#Cc1c(-c2cccc(NC(=O)[C@@H]3C[C@@H](O)CN3)c2)cc(-c2ccc(F)cc2O)nc1NC(=O)c1ccco1
Response given: 260 to 262 °C

Challenge: Follow-up entry: Cl.N#Cc1c(-c2cccc(NC(=O)CCN)c2)cc(-c2ccc(F)cc2O)nc1NC(=O)c1ccco1
Response given: 269 to 270 °C

Challenge: Follow-up entry: CCCC(CC(=O)Nc1cccc(-c2cc(-c3ccc(F)cc3O)nc(NC(=O)c3ccco3)c2C#N)c1)N(C)C.Cl (stereo not shown)
Response given: 180 to 182 °C

Challenge: Follow-up entry: Cl.N#Cc1c(-c2cccc(CNC(=O)CCN)c2)cc(-c2ccccc2O)nc1NC(=O)c1cccs1
Response given: 173 to 180 °C

Challenge: Follow-up entry: CCN(CC)CCC(=O)Nc1cccc(-c2cc(-c3ccc(F)cc3O)nc(NC(=O)c3ccco3)c2C#N)c1.Cl
Response given: 209 to 213 °C

Challenge: Follow-up entry: Cl.N#Cc1c(-c2cccc(C(=O)N[C@H]3CCCC[C@H]3N)c2)cc(-c2ccc(F)cc2O)nc1NC(=O)c1ccco1 (racemic)
Response given: 250 to 252 °C

Challenge: Follow-up entry: Cl.N#Cc1c(-c2cccc(C(=O)NCCCn3ccnc3)c2)cc(-c2ccc(Cl)cc2O)nc1NC(=O)c1nccs1
Response given: 208 to 212 °C

Challenge: Follow-up entry: N#Cc1c(-c2cccc(CNC(=N)N)c2)cc(-c2ccccc2O)nc1NC(=O)c1cccs1.O=C(O)C(F)(F)F
Response given: 144 to 151 °C

Challenge: Follow-up entry: CN1C[C@H](O)C[C@H]1C(=O)Nc1cccc(-c2cc(-c3ccc(F)cc3O)nc(NC(=O)c3ccco3)c2C#N)c1.Cl
Response given: 215 to 217 °C

Challenge: Follow-up entry: N#Cc1c(-c2cccc(NC(=O)[C@@H](N)Cc3cnc[nH]3)c2)cc(-c2ccc(Cl)cc2O)nc1NC(=O)c1ccco1 (as salt: hydrochloride) [Example 243, dihydrochloride]
Response given: 206 to 214 °C

Challenge: Follow-up entry: CCCC(N)CC(=O)Nc1cccc(-c2cc(-c3ccc(F)cc3O)nc(NC(=O)c3ccco3)c2C#N)c1.Cl (stereo not shown)
Response given: 214 to 217 °C

Challenge: Follow-up entry: CC(CC(=O)Nc1cccc(-c2cc(-c3ccc(F)cc3O)nc(NC(=O)c3ccco3)c2C#N)c1)N(C)C.Cl (stereo not shown)
Response given: 233 to 234 °C

Challenge: Follow-up entry: Cl.N#Cc1c(-c2cccc(NC(=O)Cn3ccnc3)c2)cc(-c2ccc(Cl)cc2O)nc1NC(=O)c1ccco1
Response given: 188 to 194 °C

Challenge: Follow-up entry: COc1ccccc1C(=O)Nc1nc(-c2ccc(F)cc2O)cc(-c2cccc(NC(=O)CCN)c2)c1C#N.Cl
Response given: 232 to 233 °C

Challenge: Follow-up entry: Cl.N#Cc1c(-c2cccc(NC(=O)C3(N)CCC3)c2)cc(-c2ccc(Cl)cc2O)nc1NC(=O)c1ccco1
Response given: 195 to 200 °C

Challenge: Follow-up entry: Cl.N#Cc1c(-c2cccc(C(=O)NCCN)c2)cc(-c2ccccc2O)nc1NC(=O)c1cccs1
Response given: 203 to 210 °C

Challenge: Follow-up entry: N#Cc1c(-c2cccc(C(=O)NC3CCCNC3)c2)cc(-c2ccccc2O)nc1NC(=O)c1ccccn1 (stereo not shown) (as salt: hydrochloride) [Example 10, dihydrochloride]
Response given: 204 to 210 °C

Challenge: Follow-up entry: CN(C)[C@@H]1CCCC[C@@H]1C(=O)Nc1cccc(-c2cc(-c3ccc(F)cc3O)nc(NC(=O)c3ccco3)c2C#N)c1.Cl
Response given: 205 to 207 °C
